Hey, just so you know, these numbers are from patent US10174035B2.

# Measured On: recombinant PI3K δ enzyme (Homo sapiens (Human), UniProt O00329)
# Sequence (O00329 whole entry, species assumed): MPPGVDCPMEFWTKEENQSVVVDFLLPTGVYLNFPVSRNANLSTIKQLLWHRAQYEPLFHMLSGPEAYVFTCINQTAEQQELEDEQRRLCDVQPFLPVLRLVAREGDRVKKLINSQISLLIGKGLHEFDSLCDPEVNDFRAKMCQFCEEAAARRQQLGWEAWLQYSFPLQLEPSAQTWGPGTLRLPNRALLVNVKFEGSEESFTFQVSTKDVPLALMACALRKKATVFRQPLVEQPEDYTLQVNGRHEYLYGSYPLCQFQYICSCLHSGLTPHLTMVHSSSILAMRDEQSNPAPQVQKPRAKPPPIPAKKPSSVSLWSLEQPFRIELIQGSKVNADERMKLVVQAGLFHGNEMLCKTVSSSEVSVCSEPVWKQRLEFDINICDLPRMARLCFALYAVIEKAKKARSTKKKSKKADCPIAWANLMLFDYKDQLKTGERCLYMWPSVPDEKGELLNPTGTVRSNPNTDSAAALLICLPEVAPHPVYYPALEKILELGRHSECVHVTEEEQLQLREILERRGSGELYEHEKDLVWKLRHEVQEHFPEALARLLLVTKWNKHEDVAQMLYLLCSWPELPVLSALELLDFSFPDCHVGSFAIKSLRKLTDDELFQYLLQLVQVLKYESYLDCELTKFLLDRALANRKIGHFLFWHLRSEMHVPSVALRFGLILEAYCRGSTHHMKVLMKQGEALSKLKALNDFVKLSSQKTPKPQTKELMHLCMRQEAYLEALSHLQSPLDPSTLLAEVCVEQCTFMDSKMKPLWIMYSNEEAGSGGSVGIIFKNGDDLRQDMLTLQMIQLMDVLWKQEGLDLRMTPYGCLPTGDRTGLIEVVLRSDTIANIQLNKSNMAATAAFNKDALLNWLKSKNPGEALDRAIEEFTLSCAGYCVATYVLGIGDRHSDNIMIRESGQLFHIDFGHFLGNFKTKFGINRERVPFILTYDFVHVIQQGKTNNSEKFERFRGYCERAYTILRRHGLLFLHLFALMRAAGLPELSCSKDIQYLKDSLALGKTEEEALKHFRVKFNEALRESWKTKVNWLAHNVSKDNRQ
# Sequence (P27986 whole entry partner, species assumed): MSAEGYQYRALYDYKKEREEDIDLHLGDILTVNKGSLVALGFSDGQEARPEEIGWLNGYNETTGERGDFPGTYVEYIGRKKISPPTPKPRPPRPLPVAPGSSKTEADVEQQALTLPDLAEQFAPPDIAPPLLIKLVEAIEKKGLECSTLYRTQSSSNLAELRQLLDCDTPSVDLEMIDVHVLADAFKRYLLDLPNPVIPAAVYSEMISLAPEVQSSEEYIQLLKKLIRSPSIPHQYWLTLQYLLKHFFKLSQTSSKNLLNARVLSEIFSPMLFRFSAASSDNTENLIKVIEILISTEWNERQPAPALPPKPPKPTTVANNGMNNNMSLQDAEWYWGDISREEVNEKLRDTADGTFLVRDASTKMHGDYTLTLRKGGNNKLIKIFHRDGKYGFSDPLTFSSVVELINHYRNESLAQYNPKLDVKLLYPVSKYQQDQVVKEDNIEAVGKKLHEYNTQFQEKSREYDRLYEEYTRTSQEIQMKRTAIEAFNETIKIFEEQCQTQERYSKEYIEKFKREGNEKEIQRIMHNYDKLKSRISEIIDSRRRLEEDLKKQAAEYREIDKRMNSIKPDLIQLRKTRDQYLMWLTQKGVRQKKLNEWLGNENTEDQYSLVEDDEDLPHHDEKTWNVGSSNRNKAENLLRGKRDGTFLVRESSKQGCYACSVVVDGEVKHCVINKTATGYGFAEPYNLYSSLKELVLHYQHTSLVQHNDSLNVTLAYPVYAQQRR
# Assay Protocol: In vitro enzyme assay (Kinase-Glo luminescent kinase assay), PI3Kδ
# Type: biochemical
Measurement Type: IC50 (nM)

## Input Provide only the value of recorded IC50 for Cn1cc(-c2nc(N3CCOCC3)c3nc(C(=O)N4CCN(C5CCOCC5)CC4)[nH]c3n2)cn1 [compound 11]
## Output 26

(1) Cn1cc(-c2nc(N3CCOCC3)c3nc(C(=O)NC4CCN(Cc5ccccc5)CC4)[nH]c3n2)cn1 [compound 49]
(2) Cc1nn(C)cc1-c1nc2[nH]c(C(=O)N3CCC(C(N)=O)CC3)nc2c(N2CCOCC2)c1F [compound 85]
## Input Among 1 and 2 , which shows a numerically higher IC50 result? // output: label of the selected item
## Output 1

(a) Cn1cc(-c2nc(N3CCOCC3)c3nc(C(=O)NCCN4CCOCC4)[nH]c3n2)cn1 [compound 2]
(b) CCN(CCN1CCOCC1)C(=O)c1nc2c(N3CCOCC3)nc(-c3cnn(C)c3)nc2[nH]1 [compound 59]
(c) O=C(c1nc2c(N3CCOCC3)nc(-c3cn[nH]c3)nc2[nH]1)N1CCC2(CC1)COC2 [compound 72]
## Input // smallest IC50 at index 0, largest at the end List labels; respect the requested ordering.
## Output c, a, b
(c: 18 nM, a: 48 nM, b: 206 nM)

(A) CN(C(=O)c1nc2c(N3CCOCC3)nc(-c3cnn(C)c3)nc2[nH]1)C1CCN(C2COC2)CC1 [compound 132]
(B) O=C(c1nc2c(N3CCOCC3)c(F)c(-c3cn[nH]c3)nc2[nH]1)N1CCC(N2CCOCC2)CC1 [compound 125]
## Input Which gives the smaller IC50 number: A or B ? // output: label of the selected item
## Output B

###

# Measured On: recombinant PI3K δ enzyme (Homo sapiens (Human), UniProt O00329)
# Assay Protocol: In vitro enzyme assay (Kinase-Glo luminescent kinase assay), PI3Kδ
# Format: biochemical
pIC50: −log10 of the molar value.
Measurement Type: pIC50

## Input Provide only the value of recorded pIC50 for O=C(c1nc2c(N3CCOCC3)nc(-c3c[nH]nc3C(F)(F)F)nc2[nH]1)N1CCC(N2CCOCC2)CC1 [compound 19]
## Output 7.89

## Input Provide only the value of recorded pIC50 for Cn1cc(-c2nc(N3CCOCC3)c3nc(C(=O)NCC(C)(C)CO)[nH]c3n2)cn1 [compound 76]
## Output 7.00

## Input Provide only the value of recorded pIC50 for Cn1cc(-c2nc(N3CCOCC3)c3nc(C(=O)N4CCC(CC(=O)O)CC4)[nH]c3n2)cn1 [compound 50]
## Output 6.69

## Input Provide only the value of recorded pIC50 for C[C@@H]1CN(C2CN(C(=O)c3nc4c(N5CCOCC5)c(F)c(-c5cnn(C)c5)nc4[nH]3)C2)C[C@H](C)O1 [compound 127]
## Output 7.44

## Input Provide only the value of recorded pIC50 for CC(=O)N1CCN(C(=O)c2nc3c(N4CCOCC4)nc(-c4cnn(C)c4)nc3[nH]2)CC1 [compound 39]
## Output 7.59

(I) Cc1nn(C)cc1-c1nc(N2CCOCC2)c2nc(C(=O)N3CCN(C4CCOCC4)CC3)[nH]c2n1 [compound 9]
(II) Cn1cc(-c2nc(N3CCOCC3)c3nc(C(=O)N4CCn5ccnc5C4)[nH]c3n2)cn1 [compound 30]
## Input Among I and II , which shows a numerically higher pIC50 result? // output: label of the selected item
## Output I

(I) Cn1cc(-c2nc3[nH]c(C(=O)N4CCC(N5CCOCC5)CC4)nc3c(N3CCOCC3)c2F)cn1 [compound 98]
(II) Cn1cc(-c2nc(N3CCOCC3)c3nc(C(=O)N4CCC(N5CCOCC5)CC4)[nH]c3n2)c(C(F)(F)F)n1 [compound 17]
## Input Which gives the smaller pIC50 number: I or II ? // output: label of the selected item
## Output II
